assay-target: IRAK4 (Homo sapiens, UniProt Q9NWZ3)
Construct: Degradation of IRAK4 in OCI-LY10 was quantitatively measured using Meso Scale Discovery technology; endogenous in cells; host or cells: OCI-LY10
Sequence (Q9NWZ3 1-460): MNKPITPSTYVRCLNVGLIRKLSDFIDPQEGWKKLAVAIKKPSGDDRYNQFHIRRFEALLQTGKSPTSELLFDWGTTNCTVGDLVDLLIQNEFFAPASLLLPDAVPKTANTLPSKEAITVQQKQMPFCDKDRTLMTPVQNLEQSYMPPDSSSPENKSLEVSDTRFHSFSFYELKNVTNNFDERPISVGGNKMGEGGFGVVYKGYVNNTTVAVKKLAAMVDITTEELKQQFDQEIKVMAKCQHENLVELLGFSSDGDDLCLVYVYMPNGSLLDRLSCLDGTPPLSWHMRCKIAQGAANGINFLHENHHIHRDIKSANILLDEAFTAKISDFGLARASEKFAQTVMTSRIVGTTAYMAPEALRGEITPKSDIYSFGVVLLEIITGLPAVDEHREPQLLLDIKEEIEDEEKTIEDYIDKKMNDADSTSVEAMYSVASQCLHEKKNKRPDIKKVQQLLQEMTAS
experimental-details: IRAK4 MSD Degradation in OCI-LY10
Assay type: cell-based
protocol-conditions: OCI-LY10 cells, 4 hrs incubation, MSD; read-out: IRAK4 degradation in OCI-LY10 at 4 hrs: DC50
# maps each entry to its DC50

Previously resolved entries follow.
Give me measured DC50, please, for this compound: Cn1c(=O)n(C2CCC(=O)NC2=O)c2cccc([C@]34C[C@](CN5CCN(C[C@H]6CC[C@H](n7cc(NC(=O)c8cnn9ccc(N%10C[C@H]%11C[C@@H]%10CO%11)nc89)c(C(F)F)n7)CC6)CC5)(C3)C4)c21 (stereo partly shown)
< 10 nM

Give me measured DC50, please, for this compound: Cn1c(=O)n(C2CCC(=O)NC2=O)c2cccc(C#CCOC3CN(C[C@H]4CC[C@H](n5cc(NC(=O)c6cnn7ccc(N8C[C@H]9C[C@@H]8CO9)nc67)c(C(F)F)n5)CC4)C3)c21 (stereo partly shown) [I-600]
> 200 nM

Give me measured DC50, please, for this compound: Cn1c(=O)n(C2CCC(=O)NC2=O)c2cccc(N3CCC(OC4CCN(C[C@H]5CC[C@H](n6cc(NC(=O)c7cnn8ccc(N9C[C@@H]%10C[C@H]9CO%10)nc78)c(C(F)F)n6)CC5)CC4)CC3)c21 (stereo partly shown)
< 10 nM

Give me measured DC50, please, for this compound: COc1ccc2c(c1N1CCC(N(C)C[C@H]3CC[C@H](n4cc(NC(=O)c5cnn6cccnc56)c(C(F)F)n4)CC3)C(F)(F)C1)n(C)c(=O)n2C1CCC(=O)NC1=O (stereo partly shown)
> 200 nM

Give me measured DC50, please, for this compound: Cn1c(=O)n(C2CCC(=O)NC2=O)c2cccc(C#CCOC3CCN(C[C@H]4CC[C@H](n5cc(NC(=O)c6cnn7ccc(N8CC9(CCCOC9)C8)nc67)c(C(F)F)n5)CC4)CC3)c21 (stereo partly shown)
10 to 100 nM

---
Give me measured DC50, please, for this compound: Cn1c(=O)n(C2CCC(=O)NC2=O)c2cccc(C[C@H]3CN(C[C@H]4CC[C@H](n5cc(NC(=O)c6cnn7cccnc67)c(C(F)F)n5)CC4)CCO3)c21 (stereo partly shown)
> 200 nM

Give me measured DC50, please, for this compound: Cn1c(=O)n(C2CCC(=O)NC2=O)c2cccc(C3CCN(C[C@H]4CC[C@H](n5cc6cc(NC(=O)c7cccc(C(F)(F)F)n7)c(C#N)cc6n5)CC4)CC3(F)F)c21 (stereo partly shown) [I-705]
> 200 nM

Give me measured DC50, please, for this compound: COc1ccc2c(c1C#CCO[C@H]1CCN(C[C@H]3CC[C@H](n4cc(NC(=O)c5cnn6ccc(N7C[C@H]8C[C@@H]7CO8)nc56)c(C(F)F)n4)CC3)C[C@@H]1C)n(C)c(=O)n2C1CCC(=O)NC1=O (stereo partly shown)
< 10 nM

Give me measured DC50, please, for this compound: Cn1c(=O)n(C2CCC(=O)NC2=O)c2cccc([C@H]3C[C@H](O[C@@H]4CCN(C[C@H]5CC[C@H](n6cc(NC(=O)c7cnn8ccc(N9C[C@H]%10C[C@@H]9CO%10)nc78)c(C(F)F)n6)CC5)C[C@@H]4F)C3)c21 (stereo partly shown)
> 200 nM

Give me measured DC50, please, for this compound: Cn1c(=O)n(C2CCC(=O)NC2=O)c2cccc(N3CCN([C@@H]4CCN(C[C@H]5CC[C@H](n6cc(NC(=O)c7cnn8ccc(N9CC%10(COC%10)C9)nc78)c(C(F)F)n6)CC5)CC4(F)F)CC3)c21 (stereo partly shown)
> 200 nM

* * *

assay-target: IRAK4 (Homo sapiens, UniProt Q9NWZ3)
Construct: Degradation of IRAK4 in OCI-LY10 was quantitatively measured using Meso Scale Discovery technology; endogenous in cells; host or cells: OCI-LY10
experimental-details: IRAK4 MSD Degradation in OCI-LY10
Assay type: cell-based
protocol-conditions: OCI-LY10 cells, 24 hrs incubation, MSD; read-out: IRAK4 degradation in OCI-LY10 at 24 hrs: DC50
property-label: DC50

Previously resolved entries follow.
Give me measured DC50, please, for this molecule: Cn1c(=O)n([C@H]2CCC(=O)NC2=O)c2cccc(C#CCN3CCN(C[C@H]4CC[C@H](n5cc(NC(=O)c6cnn7ccc(N8C[C@H]9C[C@@H]8CO9)nc67)c(C(F)F)n5)CC4)CC3)c21 (single isomer, unassigned)
> 200 nM

Give me measured DC50, please, for this molecule: Cn1c(=O)n(C2CCC(=O)NC2=O)c2ccc(N3CC(CO[C@H]4CCN(C[C@H]5CC[C@H](n6cc(NC(=O)c7cnn8ccc(N9C[C@H]%10C[C@@H]9CO%10)nc78)c(C(F)F)n6)CC5)C[C@H]4F)C3)c(F)c21 (single isomer, unassigned)
< 10 nM

---
Give me measured DC50, please, for this molecule: Cn1c(=O)n(C2CCC(=O)NC2=O)c2cccc(N3CCN(C4CCN([C@H]5CC[C@@H](n6cc(NC(=O)c7cnn8ccc(N9C[C@H]%10C[C@@H]9CO%10)nc78)c(C(F)F)n6)CC5)CC4)CC3)c21 (single isomer, unassigned)
> 200 nM

Give me measured DC50, please, for this molecule: Cn1c(=O)n(C2CCC(=O)NC2=O)c2cccc(C#CCOC3CCN(C[C@H]4CC[C@H](n5cc(NC(=O)c6cnn7ccc(N8CCOC(C(F)(F)F)C8)nc67)c(C(F)F)n5)CC4)CC3)c21 (stereo partly shown)
> 200 nM

Give me measured DC50, please, for this molecule: COc1cc2nn([C@H]3CC[C@H](CN4CCC(c5cccc6c5n(C)c(=O)n6C5CCC(=O)NC5=O)CC4)CC3)cc2cc1NC(=O)c1cncc(F)c1 (stereo partly shown)
> 200 nM

* * *

assay-target: IRAK4 (Homo sapiens, UniProt Q9NWZ3)
Construct: Degradation of IRAK4 in OCI-LY10 was quantitatively measured using Meso Scale Discovery technology; endogenous in cells; host or cells: OCI-LY10
experimental-details: IRAK4 MSD Degradation in OCI-LY10
Type: cell-based
protocol-conditions: OCI-LY10 cells, 4 hrs incubation, MSD; read-out: IRAK4 degradation in OCI-LY10 at 4 hrs: DC50
Procedure: Degradation of IRAK4 in OCI-LY10 was quantitatively measured using Meso Scale Discovery technology. […] Compounds were then added to the assay plates with a final top concentration of 1 to 10 μM in a 1:3 dilution series with total of 8 doses. […] The assay plates were then incubated at room temperature for 1 hour, washed 3 times with 150 μL/well TBST buffer, and 150 μL/well MSD reading buffer (Meso Scale Discovery catalog number R92TC-2) was added. […]
# maps each entry to its DC50

Previously resolved entries follow.
Give me measured DC50, please, for this molecule: CN(C[C@H]1CC[C@H](n2cc(NC(=O)c3cnn4ccc(N5CCCCC5)nc34)c(C(F)F)n2)CC1)C1CCN(c2cccc3c2n(C)c(=O)n3C2CCC(=O)NC2=O)CC1(F)F (some centres unmarked)
> 200 nM

Give me measured DC50, please, for this molecule: COc1cc2nn([C@H]3CC[C@H](CN4CCC5(CC4)CCN(c4c(F)ccc6c4n(C)c(=O)n6C4CCC(=O)NC4=O)CC5)CC3)cc2cc1NC(=O)c1cncc(C#N)c1 (some centres unmarked)
> 200 nM

Give me measured DC50, please, for this molecule: Cn1c(=O)n(C2CCC(=O)NC2=O)c2cccc([C@H]3C[C@H](CO[C@@H]4CCN(C[C@H]5CC[C@H](n6cc(NC(=O)c7cnn8ccc(N9C[C@H]%10C[C@@H]9CO%10)nc78)c(C(F)F)n6)CC5)C[C@@H]4F)C3)c21 (some centres unmarked)
> 200 nM

---
Give me measured DC50, please, for this molecule: `O=C1CCN(c2cncc3c2cccc3[C@H]2C[C@@H](CN3CCN(C[C@H]4CC[C@H](n5cc(NC(=O)c6cnn7ccc(N8C[C@H]9C[C@@H]8CO9)nc67)c(C(F)F)n5)CC4)CC3)C2)C(=O)N1`
< 10 nM

Give me measured DC50, please, for this molecule: Cn1c(=O)n(C2CCC(=O)NC2=O)c2cccc(C#CCOc3ccc(CN4CCC(n5cc(NC(=O)c6cnn7ccc(N8CC9C[C@@H]8CO9)nc67)c(C(F)F)n5)CC4)cc3)c21 (some centres unmarked)
> 200 nM

Give me measured DC50, please, for this molecule: Cn1c(=O)n(C2CCC(=O)NC2=O)c2cccc(C3CN([C@@H]4CCN(C[C@H]5CC[C@H](n6cc(NC(=O)c7cnn8ccc(N9C[C@H]%10C[C@@H]9CO%10)nc78)c(C(F)F)n6)CC5)C[C@@H]4F)C3)c21 (some centres unmarked)
> 200 nM

Give me measured DC50, please, for this molecule: Cn1c(=O)n(C2CCC(=O)NC2=O)c2cccc(C#CCN3CC4COCC(C3)N4C[C@H]3CC[C@H](n4cc(NC(=O)c5cnn6ccc(N7C[C@H]8C[C@@H]7CO8)nc56)c(C(F)F)n4)CC3)c21 (some centres unmarked)
100 to 200 nM

Give me measured DC50, please, for this molecule: Cn1c(=O)n(C2CCC(=O)NC2=O)c2cccc(C#CCOC3CCN(C[C@H]4CC[C@H](n5cc(NC(=O)c6cnn7ccc(N8C[C@H]9C[C@@H]8CO9)nc67)c(Cl)n5)CC4)CC3)c21 (some centres unmarked)
> 200 nM

The reported numbers originate from patent US12091411B2.
